- measured-target: OGA (Homo sapiens)
- Construct: endogenous in cells; host or cells: HEK293 cells inducible for P301L mutant human Tau (2N4R)
- method-summary: OGA cellular assay (ICC detection of O-GlcNAcylated proteins in HEK293 cells inducible for P301L mutant human Tau)
- Type: cell-based
- experimental-context: HEK293, HEK293 cells inducible for P301L mutant human Tau, maximal effect; Thiamet G 200 uM as maximum
reported-endpoint: Emax (%)

                                   compound     measured_target  reported_endpoint  test_result
0  Cc1cc(OC[C@H]2CCCN([C@H](C)c3nc4c(cc3F)OCCO4)C2)cc(C)n1  OGA (Homo sapiens)               Emax           86
1  Cc1cc([C@H]2CCCN(C(C)c3nc4c(cc3F)OCCO4)C2)cc(C)n1 (single isomer, unassigned)  OGA (Homo sapiens)               Emax           86
2  Cc1cc(C2CCCN(C(C)c3ccc4c(n3)OCCO4)C2)cc(C)n1 (stereo not shown)  OGA (Homo sapiens)               Emax           77
3  COc1cc(C2CCCN(C(C)c3ccc4c(n3)OCCO4)C2)cc(C)n1 (stereo not shown)  OGA (Homo sapiens)               Emax           77
4  Cc1cc(OC[C@H]2CCCN(C(C)c3ccc4c(n3)OCCO4)C2)cc(C)n1 (single isomer, unassigned) [Product 139]  OGA (Homo sapiens)               Emax           88
5  Cc1cc(CO[C@@H]2CCCN([C@H](C)c3ccc4c(n3)OCCO4)C2)cc(C)n1 (mixture of isomers)  OGA (Homo sapiens)               Emax            8
6  Cc1cc(OC2CCCN(C(C)c3ccc4c(n3)OCCO4)C2)cc(C)n1 (stereo not shown)  OGA (Homo sapiens)               Emax           60

* * *

Quick list: IC50 per entry.
- measured-target: recombinant human Meningioma Expressed Antigen 5 (MGEA5), also referred to as O-GlcNAcase (OGA) (Homo sapiens)
- Construct: Full length OGA enzyme was purchased at OnGene (cat #TP322411); purchased OnGene (so in the source)
- method-summary: OGA biochemical assay (inhibition of FM-GlcNAc hydrolysis, fluorescence)
- experimental-context: read-out: Enzymatic hOGA, pIC50 (converted)
reported-endpoint: IC50 (nM)

In [3]: df
Out[3]:
                                   compound  reported_endpoint  unit  readout_relation  test_result
0  Cc1cc(OC[C@H]2CCCN([C@H](C)c3nc4c(cc3F)OCCO4)C2)cc(C)n1               IC50    nM                 =         50.1
1  Cc1cc(CC2CN(C(C)c3ccc4c(n3)OCCO4)CCC2O)cc(C)n1 (stereo not drawn)               IC50    nM                 =         63.1
2  Cc1cc([C@H]2CCCN(C(C)c3cnc4c(c3)OCCN4)C2)cc(C)n1 (single isomer, unassigned)               IC50    nM                 =         7.94
3  Cc1cc(C[C@H]2CCCN(C(C)c3cc4c(cc3C)OCCO4)C2)cc(C)n1 (mixture of isomers)               IC50    nM                 >        10000
4  Cc1cc(CO[C@H]2CCCN(C(C)c3ccc4c(n3)OCCO4)C2)cc(C)n1 (single isomer, unassigned) [Product 167]               IC50    nM                 =          158
5  Cc1cc(OC[C@H]2CCCN(C(C)c3nc4c(cc3F)CCO4)C2)cc(C)n1 (mixture of isomers) [Product 178]               IC50    nM                 =         2.51
